TARGET DESC: Dopamine D2L receptor (Homo sapiens, UniProt P14416)
Sequence (P14416 whole entry): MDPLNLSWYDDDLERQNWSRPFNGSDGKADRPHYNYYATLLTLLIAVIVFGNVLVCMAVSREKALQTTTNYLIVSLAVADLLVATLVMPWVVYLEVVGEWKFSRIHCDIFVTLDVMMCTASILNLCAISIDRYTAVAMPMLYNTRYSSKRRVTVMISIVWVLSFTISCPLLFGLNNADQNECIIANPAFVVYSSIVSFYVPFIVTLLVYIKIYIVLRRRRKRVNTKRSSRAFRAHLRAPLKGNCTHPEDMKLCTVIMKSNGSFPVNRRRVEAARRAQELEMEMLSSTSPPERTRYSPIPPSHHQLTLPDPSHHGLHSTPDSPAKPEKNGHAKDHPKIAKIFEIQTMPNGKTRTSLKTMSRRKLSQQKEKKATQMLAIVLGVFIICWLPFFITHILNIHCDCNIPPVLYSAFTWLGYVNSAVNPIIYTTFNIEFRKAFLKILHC
MEASUREMENT PROTOCOL: GTPγS Scintillation Proximity Assay, agonist and antagonist mode
Assay type: biochemical
CONDITION SUMMARY: membrane extracts, vs reference agonist at EC80; read-out: Antagonist Activity (IC50), D2L
MEASURE: IC50 (nM)
Just the number in nM, nothing appended.

Give the reported value of IC50 for this record: CCN(CC(F)(F)F)C(=O)N[C@H]1C[C@@H]2c3cccc4[nH]c(C(F)(F)F)c(c34)C[C@H]2N(C)C1 [Compound A16H]
130

---

TARGET DESC: Serotonin 5-HT2B receptor (Homo sapiens, UniProt P41595)
Sequence (P41595 whole entry): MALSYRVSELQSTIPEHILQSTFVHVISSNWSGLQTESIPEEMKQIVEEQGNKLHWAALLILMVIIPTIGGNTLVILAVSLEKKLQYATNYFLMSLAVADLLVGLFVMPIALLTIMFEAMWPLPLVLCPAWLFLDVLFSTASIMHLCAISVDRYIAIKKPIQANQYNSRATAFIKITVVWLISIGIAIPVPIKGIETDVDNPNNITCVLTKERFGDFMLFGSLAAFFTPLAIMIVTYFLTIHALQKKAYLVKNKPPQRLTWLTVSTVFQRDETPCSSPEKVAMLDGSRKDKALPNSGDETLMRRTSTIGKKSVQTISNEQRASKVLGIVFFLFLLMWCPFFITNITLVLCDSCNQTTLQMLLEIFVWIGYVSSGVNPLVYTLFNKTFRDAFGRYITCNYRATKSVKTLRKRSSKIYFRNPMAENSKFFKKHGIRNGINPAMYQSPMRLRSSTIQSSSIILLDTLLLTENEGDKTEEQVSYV
MEASUREMENT PROTOCOL: IPOne HTRF assay, agonist and antagonist mode
CONDITION SUMMARY: agonist mode, bound stated
MEASURE: EC50

Check the records and state EC50 for CCN(CC)C(=O)N[C@H]1C[C@@H]2c3cccc4[nH]c(Br)c(c34)C[C@H]2N(C)C1
< 1000 nM

---

TARGET DESC: Serotonin 5-HT7 receptor (Homo sapiens, UniProt P34969)
Construct: expressed in transfected cells; host or cells: CHO-K1
Sequence (P34969 whole entry): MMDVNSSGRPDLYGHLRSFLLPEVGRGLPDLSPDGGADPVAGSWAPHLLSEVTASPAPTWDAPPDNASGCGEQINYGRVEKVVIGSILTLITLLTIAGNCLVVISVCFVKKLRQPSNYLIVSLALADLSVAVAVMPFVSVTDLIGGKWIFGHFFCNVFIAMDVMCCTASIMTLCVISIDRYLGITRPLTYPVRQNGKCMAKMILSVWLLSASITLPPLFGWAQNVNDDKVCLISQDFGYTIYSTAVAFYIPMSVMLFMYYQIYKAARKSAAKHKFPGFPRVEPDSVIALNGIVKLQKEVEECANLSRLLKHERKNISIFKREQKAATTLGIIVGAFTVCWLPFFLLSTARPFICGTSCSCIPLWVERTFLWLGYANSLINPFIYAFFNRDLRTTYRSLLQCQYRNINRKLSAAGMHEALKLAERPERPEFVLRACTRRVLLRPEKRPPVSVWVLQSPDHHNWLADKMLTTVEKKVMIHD
MEASUREMENT PROTOCOL: cAMP HTRF Assay for Gs Coupled Receptors, agonist and antagonist mode
Assay type: cell-based
CONDITION SUMMARY: Antagonist Activity (IC50), 5-HT7, CHO-K1 cells, vs reference agonist at EC80
MEASURE: pIC50
Reminder that pIC50 means the negative base-10 logarithm of the concentration expressed in mol/L.

Consider the compound CCN(CC)C(=O)N[C@H]1C[C@@H]2c3cccc4[nH]c(Br)c(c34)C[C@H]2N(C)C1 and give its recorded pIC50.
6.96

Return value of pIC50 for input CC[C@@H](CO)NC(=O)[C@@H]1C[C@@H]2c3cccc4c3c(c(C3CC3)n4C)C[C@H]2N(C)C1 [Compound D13H] , no commentary.
6.11

Recall and state the measured pIC50 for CCN(CC)C(=O)N[C@H]1C[C@@H]2c3cccc4[nH]c(C(F)(F)F)c(c34)C[C@H]2N(C)C1 .
6.72

Tell us which pIC50 value is on record for CCN(CC(F)(F)F)C(=O)N[C@H]1C[C@@H]2c3cccc4[nH]c(C5CC5)c(c34)C[C@H]2N(C)C1 [Compound A17H]
6.85

---

So I've got a bunch of molecules here, and I need their pIC50 values.
TARGET DESC: Adrenergic α1A receptor (Homo sapiens)
Construct: expressed in transfected cells; host or cells: CHO-K1
Sequence (P35348 whole entry): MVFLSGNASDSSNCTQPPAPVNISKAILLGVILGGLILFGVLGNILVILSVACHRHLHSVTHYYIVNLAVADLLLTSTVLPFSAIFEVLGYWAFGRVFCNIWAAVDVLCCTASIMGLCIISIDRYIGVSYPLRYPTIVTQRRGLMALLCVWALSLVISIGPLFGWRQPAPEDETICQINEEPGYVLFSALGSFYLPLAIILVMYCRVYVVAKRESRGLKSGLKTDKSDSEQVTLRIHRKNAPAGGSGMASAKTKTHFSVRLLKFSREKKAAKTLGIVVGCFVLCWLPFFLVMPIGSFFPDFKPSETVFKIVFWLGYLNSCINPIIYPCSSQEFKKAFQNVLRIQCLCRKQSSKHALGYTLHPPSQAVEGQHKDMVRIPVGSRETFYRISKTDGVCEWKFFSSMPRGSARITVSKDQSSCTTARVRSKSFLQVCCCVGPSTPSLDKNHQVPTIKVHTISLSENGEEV
MEASUREMENT PROTOCOL: IPOne HTRF assay, agonist and antagonist mode
Format: cell-based
CONDITION SUMMARY: Antagonist Activity (IC50), α1A, CHO-K1 cells, vs reference agonist at EC80
pIC50 (log units): -log10 of the concentration in mol/L.

Read the entry CCN(CC)C(=O)N[C@H]1C[C@@H]2c3cccc4[nH]c(Br)c(c34)C[C@H]2N(C)C1 and write its reported pIC50.
7.85

Name the recorded pIC50 of the item CCN(CC(F)(F)F)C(=O)N[C@H]1C[C@@H]2c3cccc4[nH]c(C5CC5)c(c34)C[C@H]2N(C)C1 [Compound A17H] in your answer.
7.89

Name the recorded pIC50 of the molecule listed here: CCN(CC)C(=O)N[C@H]1C[C@@H]2c3cccc4[nH]c(C(F)(F)F)c(c34)C[C@H]2N(C)C1
8.04

---

Please go through the items and note down their pEC50.
TARGET DESC: Serotonin 5-HT2A receptor (Homo sapiens, UniProt P28223)
Construct: expressed in transfected cells; host or cells: CHO-K1
Sequence (P28223 whole entry): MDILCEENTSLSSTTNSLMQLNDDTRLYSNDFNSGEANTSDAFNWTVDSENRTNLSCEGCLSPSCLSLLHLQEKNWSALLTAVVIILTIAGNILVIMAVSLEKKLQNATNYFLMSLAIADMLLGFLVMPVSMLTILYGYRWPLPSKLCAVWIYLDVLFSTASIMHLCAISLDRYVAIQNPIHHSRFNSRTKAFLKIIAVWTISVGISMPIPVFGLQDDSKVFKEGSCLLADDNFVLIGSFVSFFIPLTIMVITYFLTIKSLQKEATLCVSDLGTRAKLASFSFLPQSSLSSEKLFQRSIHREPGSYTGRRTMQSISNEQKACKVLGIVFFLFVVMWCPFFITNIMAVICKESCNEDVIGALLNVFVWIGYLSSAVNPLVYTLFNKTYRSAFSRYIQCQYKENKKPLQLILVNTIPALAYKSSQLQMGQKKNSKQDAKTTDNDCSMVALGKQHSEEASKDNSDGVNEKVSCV
MEASUREMENT PROTOCOL: IPOne HTRF assay, agonist and antagonist mode
Assay type: cell-based
CONDITION SUMMARY: agonist mode, bound stated; read-out: EC50 value for the Serotonin 5-HT2A receptor
pEC50: −log10 of the molar value.

Provide Serotonin 5-HT2A receptor (Homo sapiens, UniProt P28223) pEC50 reading for CCN(CC)C(=O)N[C@H]1C[C@@H]2c3cccc4[nH]c(C(F)(F)F)c(c34)C[C@H]2N(C)C1 .
> 6.00

# lookup: Serotonin 5-HT2A receptor (Homo sapiens, UniProt P28223) pEC50, key = CCN(CC)C(=O)N[C@H]1C[C@@H]2c3cccc4[nH]c(Br)c(c34)C[C@H]2N(C)C1
> 6.00

---

TARGET DESC: Serotonin 5-HT2B receptor (Homo sapiens)
Construct: expressed in transfected cells; host or cells: CHO-K1
MEASUREMENT PROTOCOL: IPOne HTRF assay, agonist and antagonist mode
Type: cell-based
CONDITION SUMMARY: Antagonist Activity (IC50), 5-HT2B, CHO-K1 cells, vs reference agonist at EC80
MEASURE: pIC50
Keep it numeric: pIC50 is minus log10 of the concentration in mol/L.

Supply measured pIC50 of CCN(CC(F)(F)F)C(=O)N[C@H]1C[C@@H]2c3cccc4[nH]c(C(F)(F)F)c(c34)C[C@H]2N(C)C1 [Compound A16H] in your reply.
7.80

---

TARGET DESC: Serotonin 5-HT1B receptor (Homo sapiens)
Sequence (P28222 whole entry): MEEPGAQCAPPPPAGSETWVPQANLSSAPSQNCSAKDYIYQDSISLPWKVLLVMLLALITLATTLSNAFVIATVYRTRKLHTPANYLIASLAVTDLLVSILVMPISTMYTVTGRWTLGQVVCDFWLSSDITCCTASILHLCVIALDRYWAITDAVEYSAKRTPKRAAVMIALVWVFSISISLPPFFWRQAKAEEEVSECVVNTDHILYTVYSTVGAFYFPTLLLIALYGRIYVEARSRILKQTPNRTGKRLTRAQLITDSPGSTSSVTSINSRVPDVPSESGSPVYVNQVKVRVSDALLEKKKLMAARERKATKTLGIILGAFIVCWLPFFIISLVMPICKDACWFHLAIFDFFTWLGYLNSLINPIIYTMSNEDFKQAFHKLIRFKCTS
MEASUREMENT PROTOCOL: GTPγS Scintillation Proximity Assay, agonist and antagonist mode
Assay type: biochemical
CONDITION SUMMARY: EC50 value for the Serotonin 5-HT1B receptor, agonist mode, bound stated
pEC50: −log10 of the molar value.
MEASURE: pEC50

Lab note: Serotonin 5-HT1B receptor (Homo sapiens) assay, enter pEC50 for CC[C@@H](CO)NC(=O)[C@@H]1C[C@@H]2c3cccc4c3c(c(C3CC3)n4C)C[C@H]2N(C)C1 [Compound D13H] here
> 6.00

---

For each of the molecules below, state its pIC50.
TARGET DESC: Serotonin 5-HT2A receptor (Homo sapiens)
Construct: expressed in transfected cells; host or cells: CHO-K1
MEASUREMENT PROTOCOL: IPOne HTRF assay, agonist and antagonist mode
Assay type: cell-based
CONDITION SUMMARY: CHO-K1 cells, vs reference agonist at EC80; read-out: Antagonist Activity (IC50), 5-HT2A
Reminder that pIC50 is minus the log10 of a molar concentration.

Name the value of pIC50 reported for CCN(CC)C(=O)N[C@H]1C[C@@H]2c3cccc4[nH]c(Br)c(c34)C[C@H]2N(C)C1 when tested on Serotonin 5-HT2A receptor (Homo sapiens).
7.85

Look up and report pIC50, with Serotonin 5-HT2A receptor (Homo sapiens) as system, for CC[C@@H](CO)NC(=O)[C@@H]1C[C@@H]2c3cccc4c3c(c(C3CC3)n4C)C[C@H]2N(C)C1 [Compound D13H]
7.13

For Serotonin 5-HT2A receptor (Homo sapiens), give pIC50 of the listed molecule: CCN(CC(F)(F)F)C(=O)N[C@H]1C[C@@H]2c3cccc4[nH]c(C5CC5)c(c34)C[C@H]2N(C)C1 [Compound A17H]
7.96

Report pIC50 on Serotonin 5-HT2A receptor (Homo sapiens) for this entry: CCN(CC)C(=O)N[C@H]1C[C@@H]2c3cccc4[nH]c(C(F)(F)F)c(c34)C[C@H]2N(C)C1
6.96

---

TARGET DESC: Serotonin 5-HT2B receptor (Homo sapiens, UniProt P41595)
Construct: expressed in transfected cells; host or cells: CHO-K1
MEASUREMENT PROTOCOL: IPOne HTRF assay, agonist and antagonist mode
Format: cell-based
CONDITION SUMMARY: CHO-K1 cells, vs reference agonist at EC80; read-out: Antagonist Activity (IC50), 5-HT2B
So basically, if IC50 comes in under 20 nM it's satisfied, and if it's 20 nM or more it's not satisfied.

I wonder whether CCN(CC(F)(F)F)C(=O)N[C@H]1C[C@@H]2c3cccc4[nH]c(C5CC5)c(c34)C[C@H]2N(C)C1 [Compound A17H] has IC50 below 20 nM. Can you tell?
not satisfied

Below 20 nM on IC50? Entry CC[C@@H](CO)NC(=O)[C@@H]1C[C@@H]2c3cccc4c3c(c(C3CC3)n4C)C[C@H]2N(C)C1 [Compound D13H]
satisfied

Is the reported IC50 for CCN(CC)C(=O)N[C@H]1C[C@@H]2c3cccc4[nH]c(Br)c(c34)C[C@H]2N(C)C1 strictly below 20 nM?
not satisfied

# TODO verify IC50 < 20 nM strictly for this compound: CCN(CC)C(=O)N[C@H]1C[C@@H]2c3cccc4[nH]c(C(F)(F)F)c(c34)C[C@H]2N(C)C1
not satisfied

Lab log: compare recorded IC50 with 20 nM; is it strictly lower for CC[C@@H](CO)NC(=O)[C@@H]1C=C2c3cccc4c3c(c(C3CC3)n4C)C[C@H]2N(C)C1 ?
not satisfied

---

TARGET DESC: Dopamine D3 receptor (Homo sapiens, UniProt P35462)
Sequence (P35462 whole entry): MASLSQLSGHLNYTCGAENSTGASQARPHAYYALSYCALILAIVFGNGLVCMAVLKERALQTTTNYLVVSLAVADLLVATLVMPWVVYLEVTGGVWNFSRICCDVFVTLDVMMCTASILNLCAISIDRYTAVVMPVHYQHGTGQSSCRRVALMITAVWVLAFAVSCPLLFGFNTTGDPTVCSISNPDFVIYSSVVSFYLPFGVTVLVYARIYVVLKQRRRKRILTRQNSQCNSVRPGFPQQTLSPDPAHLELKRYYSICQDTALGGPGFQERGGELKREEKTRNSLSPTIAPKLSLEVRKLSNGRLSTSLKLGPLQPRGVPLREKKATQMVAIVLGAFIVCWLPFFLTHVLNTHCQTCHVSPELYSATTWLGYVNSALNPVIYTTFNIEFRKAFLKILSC
MEASUREMENT PROTOCOL: GTPγS Scintillation Proximity Assay, agonist and antagonist mode
Type: biochemical
CONDITION SUMMARY: EC50 value for the Dopamine D3 receptor, agonist mode, bound stated
Description: Antagonist and agonist activities were determined using a GTPγS Scintillation Proximity Assay. […] The plates were covered with a top seal, mixed on an orbital shaker for 2 min, and then incubated for 1 hour at room temperature. Then the plates were centrifuged for 10 min at 2000 rpm, incubated at room temperature 1 hour and counted for 1 min/well with a PerkinElmer TopCount reader. […]
Can you tell me EC50 for the items I'm about to list?

Specify measured EC50 for CC[C@@H](CO)NC(=O)[C@@H]1C[C@@H]2c3cccc4c3c(c(C3CC3)n4C)C[C@H]2N(C)C1 [Compound D13H] .
< 1000 nM

Recall and state the measured EC50 for CCN(CC(F)(F)F)C(=O)N[C@H]1C[C@@H]2c3cccc4[nH]c(C5CC5)c(c34)C[C@H]2N(C)C1 [Compound A17H] .
< 1000 nM
